ASSAY_TARGET: pyranose oxidase (Trametes versicolor, UniProt P79076)
Construct: purified, about 290 kDa by gel filtration; mature N-terminus […] in fungal enzyme; pPRME18 is the alternative N-terminally shortened construct
TEST_METHOD_NOTES: Substrate specificity of pyranose oxidase (hydrogen peroxide / 4-aminoantipyrine-phenol-peroxidase colour reaction)
Assay type: biochemical, Coriolus versicolor
REPORTED_CONDITIONS: substrate 3.3 mM; relative to glucose = 100%; 2.5 units of pyranose oxidase; 37° C., pH 7.0; read-out: relative activity (%)
I'd be grateful if you could share measured activity at 3300 µM for these entries.
Units required after the number.

Check out these entries, answers already filled in.
OC[C@@H](O)[C@@H](O)[C@H](O)[C@@H](O)CO | 0%
O=C1O[C@H](CO)[C@@H](O)[C@H](O)[C@H]1O | 0.4%
CC(=O)N[C@H]1C(O)O[C@H](CO)[C@@H](O)[C@@H]1O (stereo partly shown) | 0%

Moving on to another compound below.
Entry under review: `OC[C@H]1O[C@H](OC[C@H]2O[C@H](O[C@]3(CO)O[C@H](CO)[C@@H](O)[C@@H]3O)[C@H](O)[C@@H](O)[C@@H]2O)[C@H](O)[C@@H](O)[C@H]1O` . Reported activity at 3300 µM?
0%

Where these numbers come from: patent US5712139A
